Where these numbers come from: the supplement of paper PMC9170038

- Tested on: MS2 coat protein
- methodNotes: apparent KD of MS2 coat protein, switch OFF state (with FMN for OFF switches, without FMN for ON switches); designed switch direction (-1 OFF switch, 1 ON switch): -1; higher = weaker reporter binding
- reportedConditions: FMN input: 0 or 200 uM; Eterna round: R93 (includes R88 designs)
metricName: apparent KD of MS2 coat protein (nM)
Write the value in nM as a bare number.

# input For MS2 coat protein, give the measured apparent KD of MS2 coat protein of the entry AGCUAGUCAGGAUAUACGAACAUGUCAAAAGACGUGAAAAAACAUGAGGAUCACCCAUGUAGAAGGGACUAGCA [Mat - Exclusion 2 - JL mod - D11]
# output 14.6

# input Please report apparent KD of MS2 coat protein with MS2 coat protein for item AAGGGACAUGAGGAUCACCCAUGUCAGGAUAUGAUGCGAAUAAAGAAAGAAGAAAGCAUCAGAAGGGACAAAAA [58%, Disencluded 3, 3] .
# output 57.6

Further cases:
# input Write down the reported apparent KD of MS2 coat protein (system: MS2 coat protein) of AAGAAUGCAGGAUAUACAUGAGGAUCACCCAUGUAAAAGAAAGAAAAGGGAAAGAAAAGUAGAAGGGCAAAGAA [Satre-merenamun Tausret]
# output 30.5

# input Under MS2 coat protein: report apparent KD of MS2 coat protein of AAGAAGUGAGGAUAUACAUGAAAGAAAGAAAAGAAAAGAAAACAUGAGGAUCACCCAUGUAGAAGGCACAAGAA [EteRNA is fun!] .
# output 27.6

# input Fill in: apparent KD of MS2 coat protein on MS2 coat protein, entry AGCAAGUAAGGAUAUGCGAAGUCAGGACACACACUGACGAAGCAGAAGGUACAUGAGGAUCACCCAUGUAAGCA [JR_Exclusion-4 65% 3]
# output 18.7

# input Specify the recorded apparent KD of MS2 coat protein for UUUAUGUGAGGAUAUACGAAUAGUAAGUAAGUCUUACAGACGUAGAAGGCACAUGAGGAUCACCCAUGUGAACC [JR_Exc004_Sub309] , system: MS2 coat protein.
# output 277

* * *

- Test system: K4 kissing-loop RNA reporter
- methodNotes: apparent KD of K4 kissing-loop reporter; higher = weaker reporter binding
- reportedConditions: Eterna round: R107; input ligand: FMN 200 uM
Collected apparent KD of K4 kissing-loop reporter values appear next to each entry.
Number in nM, nothing else.

For orientation, consider the following solved cases.
# input Report value only: apparent KD of K4 kissing-loop reporter, K4 kissing-loop RNA reporter, UGGAGUUGACGAAAAGUCAACUCCUGAGAUACCAGUGACGAAAGUCACCCUUGGCAGCUCACUGGCAGUGAUGUUGCAAAAUAAA [KL-SSTheo-A4]
# output 135

# input Please look at GGCAUAGUCUCAACGUGUGGUUGGGUUGGGAAGGAUAUUUGAUCGAAAAGAAGGUCCCGCAUUGAGUGAUGUUCAAGGGCUCCAA [theeternabot_exclusion_KL_FMN_A_26] and tell me its recorded apparent KD of K4 kissing-loop reporter on K4 kissing-loop RNA reporter.
# output 226

# input # assay system K4 kissing-loop RNA reporter: give apparent KD of K4 kissing-loop reporter of AAACCCAGUGAUGUUGGGAAUCAGUUGAGGGAGGAUAUUGGUAAUACAAGAAGGCCCGGCUGCGGGUGAUGUUCGCAUUAGGGCC [Exclusion FMN A GF17];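 note: bound reporter read as fluorescence of individual clusters on recovered sequencing chips by microscopy, with normalized cluster intensities fitted with a binding model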
# output 160

# input Find the measured apparent KD of K4 kissing-loop reporter of AGUAGUUGGACGGCCGCCACUAGAACGCCUUUGCCAAAGGCAGAGGACUAGAGUGAUGUUCUAGCUAGGACCGGGUCCAACUACA [Omei KL Tryp B SS A v4] with K4 kissing-loop RNA reporter as test system.
# output 224

# input Please look at UGUAAGCGCGUAGAUACCAGCAGACGAGUGAUGUUCAAGAGAUUAAGGAAAAGAAAGUAAUGCCCUUGGCAGCUAAUCAUAAGCG [whbob_Ex_Theo_B_sa93] and tell me its recorded apparent KD of K4 kissing-loop reporter on K4 kissing-loop RNA reporter.
# output 384

Continue with the sequence presented below.
# input State, for K4 kissing-loop RNA reporter, measured apparent KD of K4 kissing-loop reporter of the sequence listed here: AUUCAGAUCUGAAGGAGCGCCUUGACAAAUUACUGCUUUGAGCAGUGAUGUUGCUCAAUUAGGCAGGUAGGUCGCAGAUCUAACC [Arg B Ex t7]
# output 377
